Biological target: Circumsporozoite protein (CSP) (Plasmodium falciparum (isolate 3D7), UniProt Q7K740)
Sequence (Q7K740 19-374): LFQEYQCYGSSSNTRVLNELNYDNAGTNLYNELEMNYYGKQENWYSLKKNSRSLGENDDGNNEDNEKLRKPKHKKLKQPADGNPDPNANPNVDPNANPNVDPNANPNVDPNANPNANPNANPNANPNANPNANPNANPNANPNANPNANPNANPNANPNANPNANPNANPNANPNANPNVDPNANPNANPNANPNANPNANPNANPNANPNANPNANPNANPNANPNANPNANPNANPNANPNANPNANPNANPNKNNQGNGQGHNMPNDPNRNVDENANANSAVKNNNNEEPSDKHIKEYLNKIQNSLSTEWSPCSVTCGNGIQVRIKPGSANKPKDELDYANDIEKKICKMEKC
Assay: AVEXIS screen signal:noise (double-corrected)
MEASUREMENT_KIND: binding score
I'd appreciate a reply containing only the number, no unit.

Would you please look over these solved cases?
ADP281 (protein, also: human Fc-tagged dimer) SIYEMVVDVLFLCFAIDTKYNDGSPGREFYMDKVLMEFVENSRKAMKEAGKGGVADSRELKPMASG
0.848
ADP395 (protein, bait human Fc-tagged dimer) FVNKDQIAKDVKQFYDQALQQAVVDDDANNAKAVVKTFHETLDCCGSSTLTALTTSVLKNNLCPSGSNIISNLFKEDCHQKIDDLFSGK
1.84
ADP357 (protein, bait human Fc-tagged dimer) MGPPSAPPCRLHVPWKEVLLTASLLTFWNPPTTAKLTIESTPFNVAEGKEVLLLAHNLPQNRIGYSWYKGERVDGNSLIVGYVIGTQQATPGPAYSGRETIYPNASLLIQNVTQNDTGFYTLQVIKSDLVNEEATGQFHVYPELPKPSISSNNSNPVEDKDAVAFTCEPEVQNTTYLWWVNGQSLPVSPRLQLSNGNMTLTLLSVKRNDAGSYECEIQNPASANRSDPVTLNVLYGPDGPTISPSKANYRPGENLNLSCHAASNPPAQYSWFINGTFQQSTQELFIPNITVNNSGSYMCQAHNSATGLNRTTVTMITVSGSAP
0.755

Request: Look up binding score for this binder: ADP264 (protein, bait human Fc-tagged dimer) GRFSLFGLGGEPGGGAAGPAAAADGGTVDLREMLAVSVLAAVRGGDEVRRVRESNVLHEKSKGKTREGAEDKMTSGDVLSNRKMFYLLKTAFPSVQINTEEHVDAADQEVILWDHKIPEDILKEVTTPKEVPAESVTVWIDPLDATQEYTEDLRKYVTTMVCVAVNGKPMLGVIHKPFSEYTAWAMVDGGSNVKARSSYNEKTPRIVVSRSHSGMVKQVALQTFGNQTTIIPAGGAGYKVLALLDVPDKSQEKADLYIHVTYIKKWDICAGNAILKALGGHMTTLSGEEISYTGSDGIEGGLLASIRMNHQALVRKLPDLEKTGHK
Response: 0.964

Request: Continue with ADP156 (protein, bait human Fc-tagged dimer) MAILSFLPVLATESDWADCKSPQPWGHMLLWTAVLFLAPVAGTPAAPPKAVLKLEPQWINVLQEDSVTLTCRGTHSPESDSIQWFHNGNLIPTHTQPSYRFKANNNDSGEYTCQTGQTSLSDPVHLTVLSEWLVLQTPHLEFQEGETIVLRCHSWKDKPLVKVTFFQNGKSKKFSRSDPNFSIPQANHSHSGDYHCTGNIGYTLYSSKPVTITVQAPSSSPM
Response: 1.12

Request: Continue with ADP146 (protein, bait human Fc-tagged dimer) MVAWRSAFLVCLAFSLATLVQRGSGDFDDFNLEDAVKETSSVKQPWDHTTTTTTNRPGTTRAPAKPPGSGLDLADALDDQDDGRRKPGIGGRERWNHVTTTTKRPVTTRAPANTLGNDFDLADALDDRNDRDDGRRKPIAGGGGFSDKDLEDIVGGGEYKPDKGKGDGRYGSNDDPGSGMVAEP
Response: 1.36

Request: Continue with ADP295 (protein, bait human Fc-tagged dimer) MALLLCFVLLCGVVDFARSLSITTPEEMIEKAKGETAYLPCKFTLSPEDQGPLDIEWLISPADNQKVDQVIILYSGDKIYDDYYPDLKGRVHFTSNDLKSGDASINVTNLQLSDIGTYQCKVKKAPGVANKKIHLVVLVKPSGARCYVDGSEEIGSDFKIKCEPKEGSLPLQYEWQKLSDSQKMPTSWLAEMTSSVISVKNASSEYSGTYSCTVRNRVGSDQCLLRLNVVPPSNKAG
Response: 1.09

Request: Continue with ADP142 (protein, bait human Fc-tagged dimer) MGLGARGAWAALLLGTLQVLALLGAAHESAAMAASANIENSGLPHNSSANSTETLQHVPSDHTNETSNSTVKPPTSVASDSSNTTVTTMKPTAASNTTTPGMVSTNMTSTTLKSTPKTTSVSQNTSQISTSTMTVTHNSSVTSAASSVTITTTMHSEAKKGSKFDTGS
Response: 0.7

Request: Continue with ADP341 (protein, bait human Fc-tagged dimer) MEAAVAAPRPRLLLLVLAAAAAAAAALLPGATALQCFCHLCTKDNFTCVTDGLCFVSVTETTDKVIHNSMCIAEIDLIPRDRPFVCAPSSKTGSVTTTYCCNQDHCNKIELPTTVKSSPGLGP
Response: 1.43

Request: Continue with ADP117 (protein, bait human Fc-tagged dimer) MAAPGSARRPLLLLLLLLLLGLMHCASAAMFMVKNGNGTACIMANFSAAFSVNYDTKSGPKNMTFDLPSDATVVLNRSSCGKENTSDPSLVIAFGRGHTLTLNFTRNATRYSVQLMSFVYNLSDTHLFPNASSKEIKTVESITDIRADIDKKYRCVSGTQVHMNNVTVTLHDATIQAYLSNSSFSRGETRCEQDRPSPTTAPPAPPSPSPSPVPKSPSVDKYNVSGTNGTCLLASMGLQLNLTYERKDNTTVTRLLNINPNKTSASGSCGAHLVTLELHSEGTTVLLFQFGMNASSSRFFLQGIQLNTILPDARDPAFKAANGSLRALQATVGNSYKCNAEEHVRVTKAFSVNIFKVWVQAFKVEGGQFGSVEECLLDENSMLIP
Response: 0.992
